assay: Half life in human plasma at 5 mM by HPLC analysis; type: ADME, cell-free

Compound	half-life at 5000 µM (min)
CC(C)OC(=O)OC(C)OC(=O)C1=C(S[C@@H]2CN[C@H](C(=O)N(C)C)C2)[C@H](C)[C@@H]2[C@@H]([C@@H](C)O)C(=O)N12 (stereo partly specified)	11

* * *

assay: Half life in simulated gastric fluid at 100 uM at pH 1.2 by HPLC analysis; format: physicochemical; details: simulated gastric fluid, pH 1.2

Compound	half-life at 100 µM (min)
CC(C)OC(=O)OC(C)OC(=O)C1=C(S[C@@H]2CN[C@H](C(=O)N(C)C)C2)[C@H](C)[C@@H]2[C@@H]([C@@H](C)O)C(=O)N12 (stereo partly specified)	9.8

* * *

assay: Half life in HEPES buffer at 100 uM at pH 7.4 by HPLC analysis; format: physicochemical; conditions: pH 7.4, 100 µM
Here the recorded t1/2 is given for each entry.

Compound	t1/2, min
CC(OC(=O)O[C@H]1CCCCc2ccccc21)OC(=O)C1=C(S[C@@H]2CN[C@H](C(=O)N(C)C)C2)[C@H](C)[C@@H]2[C@@H]([C@@H](C)O)C(=O)N12 (mixture of isomers)	64
C[C@@H](O)[C@H]1C(=O)N2C(C(=O)OCOC(=O)O[C@@H]3CCCCc4ccccc43)=C(S[C@@H]3CN[C@H](C(=O)N(C)C)C3)[C@H](C)[C@H]12	27
C[C@@H](O)[C@H]1C(=O)N2C(C(=O)OCOC(=O)O[C@@H]3CCCc4ccccc43)=C(S[C@@H]3CN[C@H](C(=O)N(C)C)C3)[C@H](C)[C@H]12	1.5
CC(=O)N1C[C@@H](SC2=C(C(=O)OCOC(=O)O[C@H]3CCCCc4ccccc43)N3C(=O)[C@H]([C@@H](C)O)[C@H]3[C@H]2C)C[C@H]1C(=O)N(C)C	28

* * *

test: Half life in simulated gastric fluid at 100 uM at pH 1.2 by HPLC analysis; format: physicochemical; conditions: simulated gi fluid, pH 1.2, 100 µM
This listing pairs compounds with measured t1/2.

Compound	t1/2, min
C[C@@H](O)[C@H]1C(=O)N2C(C(=O)OCOC(=O)O[C@@H]3CCCCc4ccccc43)=C(S[C@@H]3CN[C@H](C(=O)N(C)C)C3)[C@H](C)[C@H]12	11
CC(=O)N1C[C@@H](SC2=C(C(=O)OCOC(=O)O[C@H]3CCCCc4ccccc43)N3C(=O)[C@H]([C@@H](C)O)[C@H]3[C@H]2C)C[C@H]1C(=O)N(C)C	7
C[C@@H](O)[C@H]1C(=O)N2C(C(=O)OCOC(=O)OC3CCCc4ccccc4C3)=C(S[C@@H]3CN[C@H](C(=O)N(C)C)C3)[C@H](C)[C@H]12 (mixture of isomers)	21

* * *

experiment: Half life in HEPES buffer at 100 uM at pH 7.4 by HPLC analysis; assay type: physicochemical; settings: pH 7.4, 100 µM

Smiles Code	Rel	t1/2, min
C[C@@H](O)[C@H]1C(=O)N2C(C(=O)OCOC(=O)O[C@H]3CCCCc4ccccc43)=C(S[C@@H]3CN[C@H](C(=O)N(C)C)C3)[C@H](C)[C@H]12	=	28
C[C@@H](O)[C@H]1C(=O)N2C(C(=O)OCOC(=O)O[C@H]3CCCc4ccccc43)=C(S[C@@H]3CN[C@H](C(=O)N(C)C)C3)[C@H](C)[C@H]12	=	1.4
C[C@@H](O)[C@H]1C(=O)N2C(C(=O)OCOC(=O)O[C@H]3CCc4ccccc43)=C(S[C@@H]3CN[C@H](C(=O)N(C)C)C3)[C@H](C)[C@H]12	<	1
